- Test context: 298.15 K; 101.33 kPa; Liquid; Vibrating tube method
Provide the recorded mass density for the entries that follow.
Numbers only, in kg/m3.

{"columns": ["Molecule", "Reported value"],
 "data": [
  ["CCCCCCCC", 698.86]
]}

# return mass density for each item in the list
1. CCCCCCCCCC
2. CCCCCCCCCCCC
3. c1ccccc1
4. CCCC[N+](C)(CCCC)CCCC.O=S(=O)([N-]S(=O)(=O)C(F)(F)F)C(F)(F)F [tributylmethylammonium bis((trifluoromethyl)sulfonyl)imide]

Reply text:
726.15
745.28
873.71
1261.65

Inquiry: Can you look up the measured mass density of CCCC[N+](C)(C)C.O=S(=O)([N-]S(=O)(=O)C(F)(F)F)C(F)(F)F [butyltrimethylammonium bis(trifluoromethylsulfonyl)imide] for me?
Reply text: 1392.99
